pKi values by entry
- ASSAYED TARGET: 5'-methylthioadenosine/S-adenosylhomocysteine nucleosidase (Escherichia coli O157:H7, UniProt P0AF14)
- Sequence (P0AF14 whole entry): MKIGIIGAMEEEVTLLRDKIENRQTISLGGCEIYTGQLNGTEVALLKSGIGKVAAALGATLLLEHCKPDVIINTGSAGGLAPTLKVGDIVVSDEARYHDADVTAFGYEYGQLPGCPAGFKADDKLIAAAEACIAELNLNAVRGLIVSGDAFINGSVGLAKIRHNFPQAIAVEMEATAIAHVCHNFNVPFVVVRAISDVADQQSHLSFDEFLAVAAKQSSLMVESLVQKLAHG
- TEST PROTOCOL: Inhibition of Escherichia coli S-adenosyl homocysteine/methylthioadenosine nucleosidase (MTA/SAH nucleosidase)
pKi: −log10 of the molar value.
OBSERVED PROPERTY: pKi

* O=S(=O)(Nc1ccc2c[nH]nc2c1)c1ccc(Cl)cc1 | 4.77
* CC(C)CNc1cc(NS(=O)(=O)c2cccc(-c3ccc(F)c(Cl)c3)c2)cc2c(Cl)[nH]nc12 | 8.47
* CC(C)CNc1cc(NS(=O)(=O)c2cccc(-c3cccc(CCO)c3)c2)cc2c(Cl)[nH]nc12 | 7.60
* CC(C)CNc1cc(NS(=O)(=O)c2cccc(-c3cccc(C(F)(F)F)c3)c2)cc2c(Cl)[nH]nc12 | 7.96
* CC(C)CNc1cc(NS(=O)(=O)c2ccc(Cl)cc2)cc2c(Cl)[nH]nc12 | 6.12
* Cc1cc(-c2cccc(S(=O)(=O)Nc3cc(NCC(C)C)c4n[nH]c(Cl)c4c3)c2)ccc1F | 7.84
* CC(C)CNc1cc(NS(=O)(=O)c2cccc(-c3cnc4ccccc4c3)c2)cc2c(Cl)[nH]nc12 | 7.97
* CN(C)c1cccc2c(S(=O)(=O)Nc3ccc4[nH]ncc4c3)cccc12 | 5.55
* CN(C)c1cccc2c(S(=O)(=O)Nc3ccc4[nH]nc(Cl)c4c3)cccc12 | 4.66
* CC(C)=CCNc1cc(NS(=O)(=O)c2ccc(Cl)cc2)cc2c(Cl)[nH]nc12 | 5.66
* CC(C)CNc1cc(NS(=O)(=O)c2cccc(-c3ccccc3)c2)cc2c(Cl)[nH]nc12 | 7.03
* CCc1cccc(-c2cccc(S(=O)(=O)Nc3cc(NCC(C)C)c4[nH]nc(C)c4c3)c2)c1 | 6.90
* Cc1n[nH]c2ccc(NS(=O)(=O)c3ccc(Cl)cc3)cc12 | 5.40
* Cc1n[nH]c2c(NCC(C)C)cc(NS(=O)(=O)c3cccc(-c4ccccc4)c3)cc12 | 6.30
* CC(C)CNc1cc(NS(=O)(=O)c2cccc(-c3ccc(F)c(F)c3)c2)cc2c(Cl)[nH]nc12 | 8.09
* CC(=O)Nc1cc(NS(=O)(=O)c2ccc(Cl)cc2)cc2c(Cl)[nH]nc12 | 4.96
* Cc1cccc(-c2cccc(S(=O)(=O)Nc3cc(NCC(C)C)c4[nH]nc(C)c4c3)c2)c1 | 7.00
* Cc1cc(-c2cccc(S(=O)(=O)Nc3cc(NCC(C)C)c4n[nH]c(Cl)c4c3)c2)ccc1Cl | 8.41
* CN(C)c1cccc2c(S(=O)(=O)Nc3ccc4c[nH]nc4c3)cccc12 | 6.00
